- Tested on: Vero
- Measurement Description: Cytotoxicity against PIV 3 infected african green monkey Vero cells by trypan blue exclusion method
- Format: cell-based
- Measurement Conditions: chlorocebus sabaeus, vero
Measurement Type: CC50

GET /values?readout=CC50&system=Vero&item= COc1cc(/C=C/C(=O)C(CCOC(=O)CCC(NC(=O)c2ccc(NCc3cnc4nc(N)[nH]c(=O)c4n3)cc2)C(=O)O)C(=O)/C=C/c2ccc(O)c(OC)c2)ccc1O (stereo unspecified)
> 11 nM

GET /values?readout=CC50&system=Vero&item= Nc1ncnc2c1ncn2C[C@H](O)CO [(S)-DHPA]
> 250000 nM

GET /values?readout=CC50&system=Vero&item= COc1cc(/C=C/C(=O)CC(=O)/C=C/c2ccc(OCCOC(=O)CCC(NC(=O)c3ccc(NCc4cnc5nc(N)[nH]c(=O)c5n4)cc3)C(=O)O)c(OC)c2)ccc1O (stereo unspecified)
> 119 nM

GET /values?readout=CC50&system=Vero&item= COc1cc(/C=C/C(=O)CC(=O)/C=C/c2ccc(OC(=O)[C@H](Cc3ccccc3)NC(=O)[C@@H](N)Cc3c[nH]c4ccccc34)c(OC)c2)ccc1OC(=O)[C@H](Cc1ccccc1)NC(=O)[C@@H](N)Cc1c[nH]c2ccccc12
19 nM

GET /values?readout=CC50&system=Vero&item= COc1cc(/C=C/C(=O)CC(=O)/C=C/c2ccc(O)c(OC)c2)ccc1O [CURCUMIN]
54 nM

GET /values?readout=CC50&system=Vero&item= COc1cc(/C=C/C(=O)CC(=O)/C=C/c2ccc(OC(=O)CCC(NC(=O)c3ccc(NCc4cnc5nc(N)[nH]c(=O)c5n4)cc3)C(=O)O)c(OC)c2)ccc1OC(=O)CCC(NC(=O)c1ccc(NCc2cnc3nc(N)[nH]c(=O)c3n2)cc1)C(=O)O (stereo unspecified)
> 82 nM

###

- Measurement Description: Cytotoxicity against Reovirus 1 infected african green monkey Vero cells by trypan blue exclusion method
- Type: cell-based
- Measurement Conditions: chlorocebus sabaeus, Vero cells infected with reovirus 1
Measurement Type: CC50

So what does the record say about CC50 for NC(=O)c1ncn([C@@H]2O[C@H](CO)[C@@H](O)[C@H]2O)n1 ?
> 250 µM

###

- Measurement Description: Cytotoxicity against Feline herpesvirus infected cat CRFK cells by trypan blue exclusion method
- Format: cell-based, Felis catus
- Measurement Conditions: crfk
Attribute: CC50

Reference set (4 entries):
Compound: COc1cc(/C=C/C(=O)CC(=O)/C=C/c2ccc(OC(=O)CCC(NC(=O)c3ccc(NCc4cnc5nc(N)[nH]c(=O)c5n4)cc3)C(=O)O)c(OC)c2)ccc1OC(=O)CCC(NC(=O)c1ccc(NCc2cnc3nc(N)[nH]c(=O)c3n2)cc1)C(=O)O (stereo not given)
CC50: 11 nM
--
Compound: COc1cc(/C=C/C(=O)C(CCOC(=O)CCC(NC(=O)c2ccc(NCc3cnc4nc(N)[nH]c(=O)c4n3)cc2)C(=O)O)C(=O)/C=C/c2ccc(O)c(OC)c2)ccc1O (stereo not given)
CC50: > 11 nM
--
Compound: COc1cc(/C=C/C(=O)CC(=O)/C=C/c2ccc(OC(=O)[C@H](Cc3ccccc3)NC(=O)[C@@H](N)Cc3c[nH]c4ccccc34)c(OC)c2)ccc1OC(=O)[C@H](Cc1ccccc1)NC(=O)[C@@H](N)Cc1c[nH]c2ccccc12
CC50: > 96 nM
--
Compound: COc1cc(/C=C/C(=O)CC(=O)/C=C/c2ccc(O)c(OC)c2)ccc1O
CC50: > 271 nM

Next up:
So what does the record say about CC50 for COc1cc(/C=C/C(=O)CC(=O)/C=C/c2ccc(OCCOC(=O)CCC(NC(=O)c3ccc(NCc4cnc5nc(N)[nH]c(=O)c5n4)cc3)C(=O)O)c(OC)c2)ccc1O (stereo not given) ?
> 119 nM

###

- Measurement Description: Cytotoxicity against Punta Toro virus infected african green monkey Vero cells by trypan blue exclusion method
- Format: cell-based
- Measurement Conditions: chlorocebus sabaeus, Vero cells infected with Punta Toro virus
Measurement Type: CC50

So what does the record say about CC50 for NC(=O)c1ncn([C@@H]2O[C@H](CO)[C@@H](O)[C@H]2O)n1 ?
> 250 µM

These data points were gathered from ChEMBL document CHEMBL1154855.
